Target: MS2 coat protein, dlFG mutant (Escherichia phage MS2, UniProt P03612, del68-81insG)
Assay: 4 mM Mg2+; no ligand; RNA-MaP array; 100 mM Tris-HCl pH 7.5, 80 mM KCl, 4 mM MgCl2, 0.1 mg/mL BSA, 1 mM DTT, 0.01 mg/mL yeast tRNA, 0.01% Tween-20; protein 1.5 nM to 3 uM; 37 C (Table S3)
Settings: chain copies: 2; label: tethered by stalled RNA polymerase
pKd: −log10 of the molar value.
pKd below 7 gives 0; pKd at or above it gives 1.

{"binder": "AAAGCAUGACGCGCUUUCAAGCGUGGCGAGUAUAAA (ssRNA) [Eterna 2 (No-binding control)]", "groupLabel": 0}

Can Eterna 7734297 (Exclusion - Theophylline B) (ssRNA) RNA: GGCCGAUGGUGCGAUACCAGCUUGAGUGUACUGGCCAGGUACAUGAGGAUCACCCAUGUAAGCCCUUGGCAGCGCGUCAGAGGCC be said to have pKd at or above 7?
1

Likewise for Eterna 5942428 (Same State NG 3) (ssRNA) RNA: GUGGUCAGACAUGAGGAUCACCCAUGUGGAAUAAAUAACACACAGGAUAUCAAAUAUAAAAUAUAUGAGAAGGGUGGAUUGGUG ?
0

Likewise for Eterna 7739921 (Exclusion - Arginine B) (ssRNA) RNA: UGAUAGGACAGAAGGAGCGGCAGUGAUGUUGCCAAAAGGGUAAGGUGUCAAAAGACACCCUGCCAGGUAGGUCGCUGUCCUAUCU ?
0

Likewise for Eterna 7643338 (Exclusion - Arginine B) (ssRNA) RNA: UUAUAUUAUCGAAGGAGCGUCACAUGAGGAUCACCCAUGUACAUGAGGAUCACCCAUGUGUGGCAGGUAGGUCGCGAUAUAUAAC ?
0

Likewise for Eterna 6147986 (Exclusion NG 1) (ssRNA) RNA: GCAAUGUGAUAAGGAUAUCCAAUGGCAUCCCUAGGAGAAGGUAUCACAUGAGGAUCACCCAUGUGAAGGACGGGUUAUCGCAAA ?
1
